tested on: Streptococcus pneumoniae; experiment: Antibacterial activity against wild type Streptococcus pneumoniae ATCC 49619 assessed as growth inhibition by broth microdilution method; format: functional
Output rule met for records whose MIC is lower than 0.06 µg/mL, rule not met for records at or above 0.06 µg/mL.

COc1cc(F)c2nccc([C@@H](O)[C@H](O)[C@@H]3CC[C@@H](NCc4ccc5c(n4)NC(=O)CS5)CO3)c2c1	rule not met
COc1ccc2nccc(NC(=O)[C@@H]3CC[C@@H](NCc4cc5c(cn4)OCCO5)CO3)c2n1	rule not met
COc1ccc2nccc(C(O)C[C@@H]3CC[C@@H](NCc4ccc5c(n4)NC(=O)CS5)CO3)c2n1 (mixture of isomers)	rule met
O=c1ccc2ccc(F)c3c2n1CC3CN1CCC(NCc2cc3c(cn2)OCCO3)CC1 (stereo not given)	rule met
COc1ccc2nccc([C@@H](O)[C@H](O)[C@H]3CC[C@H](NCc4ccc5c(n4)NC(=O)CS5)CO3)c2n1	rule not met
COc1ccc2nccc(CC[C@@H]3CC[C@@H](NCc4cc5c(cn4)OCCO5)CO3)c2n1	rule not met
O=C(O)c1cn(C2CC2)c2cc(N3CCNCC3)c(F)cc2c1=O [CIPROFLOXACIN]	rule not met
COc1ccc2nccc(NC(=O)[C@@H]3CC[C@@H](NCc4ccc5c(n4)NC(=O)CS5)CO3)c2n1	rule not met
COc1ccc2ncc(F)c([C@@H](O)CC[C@@H]3CCN(CCSc4cccs4)C[C@@H]3C(=O)O)c2c1	rule not met
COc1ccc2ncc(F)c([C@@H](O)[C@H](O)[C@@H]3CC[C@@H](NCc4cc5c(nn4)OCCO5)CO3)c2n1	rule not met
COc1cnc2ccc(F)c([C@@H](O)[C@H](O)[C@@H]3CC[C@@H](NCc4cc5c(cn4)OCCO5)CO3)c2n1	rule not met
COc1ccc2nccc(NC(=O)[C@H]3CC[C@H](NCc4ccc5c(n4)NC(=O)CS5)CC3)c2n1	rule not met

---

target: Topoisomerase IV (Staphylococcus aureus, UniProt P0C1S7+P0C1U9); assay: Inhibition of wild type Staphylococcus aureus ATCC 29213 topoisomerase-4 subunit 2GrlA/2GrlB assessed as pBR322 relaxation after 1 hr
recorded.endpoint: IC50

O=c1ccc2ccc(F)c3c2n1CC3CN1CCC(NCc2cc3c(cn2)OCCO3)CC1 (stereo not drawn)	2000 nM
COc1cnc2ccc(F)c([C@@H](O)[C@H](O)[C@@H]3CC[C@@H](NCc4ccc5c(n4)NC(=O)CS5)CO3)c2n1	2000 nM
COc1cc(F)c2nccc([C@@H](O)[C@H](O)[C@@H]3CC[C@@H](NCc4ccc5c(n4)NC(=O)CS5)CO3)c2c1	8000 nM

---

biological target: DNA gyrase subunit A (Staphylococcus aureus, UniProt P20831, S84L); assay: Inhibition of quinolone-resistant Staphylococcus aureus A-798 DNA gyrase S84L mutant assessed as pBR322 supercoiling after 1 hr
recorded.endpoint: IC50

COc1ccc2nccc(NC(=O)[C@H]3CC[C@H](NCc4ccc5c(n4)NC(=O)CS5)CC3)c2n1	8 nM
COc1ccc2ncc(F)c([C@@H](O)CC[C@@H]3CCN(CCSc4cccs4)C[C@@H]3C(=O)O)c2c1	125 nM
O=c1ccc2ccc(F)c3c2n1CC3CN1CCC(NCc2cc3c(cn2)OCCO3)CC1 (centres undefined)	30 nM
N#Cc1ccc2ccc(=O)n(CCN3CC[C@H](NCc4cc5c(cn4)OCCO5)[C@H](F)C3)c2c1	30 nM

---

target: DNA gyrase subunit A (Staphylococcus aureus, UniProt P20831, D83N); test: Inhibition of NXL-101-resistant Staphylococcus aureus DNA gyrase D83N mutant assessed as pBR322 supercoiling after 1 hr
recorded.endpoint: IC50

O=c1ccc2ccc(F)c3c2n1CC3CN1CCC(NCc2cc3c(cn2)OCCO3)CC1 (centres undefined)	2 µM
N#Cc1ccc2ccc(=O)n(CCN3CC[C@H](NCc4cc5c(cn4)OCCO5)[C@H](F)C3)c2c1	32 µM
COc1ccc2ncc(F)c([C@@H](O)CC[C@@H]3CCN(CCSc4cccs4)C[C@@H]3C(=O)O)c2c1	128 µM
COc1ccc2nccc(NC(=O)[C@H]3CC[C@H](NCc4ccc5c(n4)NC(=O)CS5)CC3)c2n1	8 µM

---

assay: Inhibition of wild type Escherichia coli ATCC 25922 DNA topoisomerase-4 subunit 2ParC/2ParE assessed as pBR322 relaxation after 1 hr
Examples of compounds with documented IC50 follow.
recorded.endpoint: IC50 (nM)

COc1ccc2nccc([C@@H](O)[C@H](O)[C@@H]3CC[C@@H](NCc4cc5c(cn4)OCCO5)CO3)c2n1	125
COc1ccc2ncc(F)c([C@@H](O)[C@H](O)[C@@H]3CC[C@@H](NCc4cc5c(cn4)OCCO5)CO3)c2n1	125
COc1ccc2ncc(F)c([C@@H](O)CC[C@@H]3CCN(CCSc4cccs4)C[C@@H]3C(=O)O)c2c1	2000
COc1ccc2ncc(F)c([C@@H](O)[C@H](O)[C@@H]3CC[C@@H](NCc4cc5c(nn4)OCCS5)CO3)c2n1	500
N#Cc1ccc2ccc(=O)n(CCN3CC[C@H](NCc4cc5c(cn4)OCCO5)[C@H](F)C3)c2c1	125
O=c1ccc2ccc(F)c3c2n1CC3CN1CCC(NCc2cc3c(cn2)OCCO3)CC1 (stereo not given)	500
COc1ccc2nccc([C@H](O)[C@@H](O)[C@@H]3CC[C@@H](NCc4ccc5c(n4)NC(=O)CS5)CO3)c2n1	125
COc1cnc2ccc(F)c([C@@H](O)[C@H](O)[C@@H]3CC[C@@H](NCc4cc5c(nn4)OCCS5)CO3)c2n1	2000
COc1ccc2ncc(F)c([C@@H](O)[C@H](O)[C@@H]3CC[C@@H](NCc4cc5c(cn4)OCCS5)CO3)c2n1	125
COc1ccc2cccc([C@@H](O)[C@H](O)[C@@H]3CC[C@@H](NCc4ccc5c(n4)NC(=O)CS5)CO3)c2n1	125
COc1cnc2cccc([C@@H](O)[C@H](O)[C@@H]3CC[C@@H](NCc4ccc5c(n4)NC(=O)CS5)CO3)c2c1	125
COc1ccc2ncc(F)c([C@@H](O)[C@H](O)[C@@H]3CC[C@@H](NCc4cc5c(nn4)OCCO5)CO3)c2n1	2000
COc1ccc2nccc([C@H](O)[C@@H](O)[C@H]3CC[C@H](NCc4ccc5c(n4)NC(=O)CS5)CO3)c2n1	125
COc1ccc2nccc([C@@H](O)[C@H](O)[C@@H]3CC[C@@H](NCc4ccc5c(n4)NC(=O)CS5)CO3)c2n1	125
COc1cnc2ccc(F)c([C@@H](O)[C@H](O)[C@@H]3CC[C@@H](NCc4cc5c(cn4)OCCO5)CO3)c2n1	500
COc1cc(F)c2nccc([C@@H](O)[C@H](O)[C@@H]3CC[C@@H](NCc4ccc5c(n4)NC(=O)CS5)CO3)c2c1	125
COc1cnc2cccc([C@@H](O)[C@H](O)[C@@H]3CC[C@@H](NCc4ccc5c(n4)NC(=O)CS5)CO3)c2n1	125
COc1cnc2ccc(F)c([C@@H](O)[C@H](O)[C@@H]3CC[C@@H](NCc4ccc5c(n4)NC(=O)CS5)CO3)c2n1	125
COc1ccc2nccc(NC(=O)[C@H]3CC[C@H](NCc4ccc5c(n4)NC(=O)CS5)CC3)c2n1	8

---

assay: AUC in Wistar rat at 1 mg/kg, po; format: ADME, organism-based; parameters: dose 1 mg/kg, route oral; settings: plasma
recorded.endpoint: AUC

COc1ccc2ncc(F)c([C@@H](O)[C@H](O)[C@@H]3CC[C@@H](NCc4cc5c(cn4)OCCS5)CO3)c2n1	776 ng·h/mL

---

experiment: Intrinsic clearance in mouse liver microsomes at 1 uM; assay type: ADME, Microsome; conditions: read-out: CLH
Examples of compounds with documented microsomal CLint at 1 µM follow.
recorded.endpoint: microsomal CLint at 1 µM (µL/min/mg)

COc1cnc2cccc([C@@H](O)[C@H](O)[C@@H]3CC[C@@H](NCc4ccc5c(n4)NC(=O)CS5)CO3)c2n1	39
COc1ccc2ncc(F)c([C@@H](O)[C@H](O)[C@@H]3CC[C@@H](NCc4cc5c(cn4)OCCS5)CO3)c2n1	291
COc1ccc2nccc(CC[C@@H]3CC[C@@H](NCc4ccc5c(n4)NC(=O)CS5)CO3)c2n1	954

---

experiment: Clearance in Wistar rat at 0.5 mg/kg, iv; type: ADME, organism-based; parameters: dose 0.5 mg/kg, route intravenous; conditions: in vivo
recorded.endpoint: clearance (mL/min/kg)

COc1ccc2ncc(F)c([C@@H](O)[C@H](O)[C@@H]3CC[C@@H](NCc4cc5c(cn4)OCCS5)CO3)c2n1	8.7

---

target: DNA gyrase (Staphylococcus aureus, UniProt P0A0K8+P20831); assay: Inhibition of wild type Staphylococcus aureus DNA gyrase subunit 2GyrA/2GyrB assessed as pBR322 supercoiling after 1 hr
recorded.endpoint: IC50 (µM)

O=c1ccc2ccc(F)c3c2n1CC3CN1CCC(NCc2cc3c(cn2)OCCO3)CC1 (stereo unspecified)	0.125
COc1ccc2nccc([C@@H](O)[C@H](O)[C@H]3CC[C@H](NCc4ccc5c(n4)NC(=O)CS5)CO3)c2n1	0.125
COc1ccc2ncc(F)c([C@@H](O)[C@H](O)[C@@H]3CC[C@@H](NCc4cc5c(cn4)OCCO5)CO3)c2n1	0.03
COc1ccc2ncc(F)c([C@@H](O)[C@H](O)[C@@H]3CC[C@@H](NCc4cc5c(cn4)OCCS5)CO3)c2n1	0.03
COc1ccc2nccc(/C=C/[C@@H]3CC[C@@H](NCc4cc5c(cn4)OCCO5)CO3)c2n1	0.125
COc1ccc2cccc([C@@H](O)[C@H](O)[C@@H]3CC[C@@H](NCc4ccc5c(n4)NC(=O)CS5)CO3)c2n1	0.03
COc1ccc2ncc(F)c([C@@H](O)[C@H](O)[C@@H]3CC[C@@H](NCc4ccc5c(n4)NC(=O)CS5)CO3)c2n1	0.03
COc1ccc2nccc(NC(=O)[C@@H]3CC[C@@H](NCc4ccc5c(n4)NC(=O)CS5)CO3)c2n1	0.125
COc1cnc2ccc(F)c([C@@H](O)[C@H](O)[C@@H]3CC[C@@H](NCc4cc5c(cn4)OCCS5)CO3)c2n1	0.03
COc1ccc2nccc(NC(=O)[C@@H]3CC[C@@H](NCc4cc5c(cn4)OCCO5)CO3)c2n1	0.125
COc1ccc2ncc(F)c([C@@H](O)[C@H](O)[C@@H]3CC[C@@H](NCc4ccc5c(n4)NC(=O)CS5)CO3)c2c1	0.125
COc1cnc2ccc(F)c([C@@H](O)[C@H](O)[C@@H]3CC[C@@H](NCc4cc5c(cn4)OCCO5)CO3)c2n1	0.125
COc1cnc2ccc(F)c([C@@H](O)[C@H](O)[C@@H]3CC[C@@H](NCc4cc5c(nn4)OCCS5)CO3)c2n1	0.125
COc1ccc2ncc(F)c([C@@H](O)[C@H](O)[C@@H]3CC[C@@H](NCc4cc5c(nn4)OCCS5)CO3)c2n1	0.125
COc1ccc2nccc(C(O)C[C@@H]3CC[C@@H](NCc4cc5c(cn4)OCCO5)CO3)c2n1 (mixture of isomers)	0.125
COc1ccc2ncc(F)c([C@@H](O)[C@H](O)[C@@H]3CC[C@@H](NCc4cc5c(nn4)OCCO5)CO3)c2n1	0.125
COc1ccc2nccc(OC[C@@H]3CC[C@@H](NCc4ccc5c(n4)NC(=O)CS5)CO3)c2n1	0.125
COc1ccc2ncc(F)c([C@@H](O)CC[C@@H]3CCN(CCSc4cccs4)C[C@@H]3C(=O)O)c2c1	0.125
N#Cc1ccc2ccc(=O)n(CCN3CC[C@H](NCc4cc5c(cn4)OCCO5)[C@H](F)C3)c2c1	0.03
COc1cnc2cccc([C@@H](O)[C@H](O)[C@@H]3CC[C@@H](NCc4ccc5c(n4)NC(=O)CS5)CO3)c2c1	0.125
COc1cnc2cccc([C@@H](O)[C@H](O)[C@@H]3CC[C@@H](NCc4ccc5c(n4)NC(=O)CS5)CO3)c2n1	0.03
COc1ccc2nccc(CC[C@@H]3CC[C@@H](NCc4ccc5c(n4)NC(=O)CS5)CO3)c2n1	0.03
COc1ccc2nccc([C@H](O)[C@@H](O)[C@@H]3CC[C@@H](NCc4ccc5c(n4)NC(=O)CS5)CO3)c2n1	0.5
COc1ccc2nccc([C@H](O)[C@@H](O)[C@H]3CC[C@H](NCc4ccc5c(n4)NC(=O)CS5)CO3)c2n1	0.03
COc1ccc2nccc(OC[C@@H]3CC[C@@H](NCc4cc5c(cn4)OCCO5)CO3)c2n1	0.5
COc1cnc2ccc(F)c([C@@H](O)[C@H](O)[C@@H]3CC[C@@H](NCc4ccc5c(n4)NC(=O)CS5)CO3)c2n1	0.03
COc1ccc2nccc(/C=C/[C@@H]3CC[C@@H](NCc4ccc5c(n4)NC(=O)CS5)CO3)c2n1	0.125
COc1cc(F)c2nccc([C@@H](O)[C@H](O)[C@@H]3CC[C@@H](NCc4ccc5c(n4)NC(=O)CS5)CO3)c2c1	0.125
